System: SK-MEL-2 melanoma
Assay: NCI tumour cell line growth inhibition, 48 h
Some compounds, each annotated with its measured TGI.

COMPOUND | RESULT
CCC(=O)N/N=C(\C=C\c1cccc(O)c1)c1sc(Nc2ccc(C)cc2[N+](=O)[O-])nc1C | > 100 µM

Entry COc1ccc(CCNCCCC2c3ccccc3-c3ccccc32)cc1OC — recorded TGI = 17.9 µM

Entry CC1=NN(C(=O)CC(=O)Nc2cccc(Cl)c2)C(=O)C1N=Nc1ccc(C(=O)O)cc1 (stereo not given) — recorded TGI = > 100 µM

Entry COc1cc(Cl)cc(-c2nn(-c3cccc(NC(=O)Nc4ccc(Cl)c(C(F)(F)F)c4)c3)cc2-c2ccncc2)c1 — recorded TGI = 4.21 µM
